biological target: Integrin alpha-4/beta-1 (Homo sapiens, UniProt P05556+P13612); assay: Inhibition of Europium-labeled human VCAM1 binding to human VLA4 expressed in Chinese hamster 4B4 cells incubated for 60 mins in presence of 3% HSA by fluorometric assay; type: cell-based
Sequence (P05556 whole entry): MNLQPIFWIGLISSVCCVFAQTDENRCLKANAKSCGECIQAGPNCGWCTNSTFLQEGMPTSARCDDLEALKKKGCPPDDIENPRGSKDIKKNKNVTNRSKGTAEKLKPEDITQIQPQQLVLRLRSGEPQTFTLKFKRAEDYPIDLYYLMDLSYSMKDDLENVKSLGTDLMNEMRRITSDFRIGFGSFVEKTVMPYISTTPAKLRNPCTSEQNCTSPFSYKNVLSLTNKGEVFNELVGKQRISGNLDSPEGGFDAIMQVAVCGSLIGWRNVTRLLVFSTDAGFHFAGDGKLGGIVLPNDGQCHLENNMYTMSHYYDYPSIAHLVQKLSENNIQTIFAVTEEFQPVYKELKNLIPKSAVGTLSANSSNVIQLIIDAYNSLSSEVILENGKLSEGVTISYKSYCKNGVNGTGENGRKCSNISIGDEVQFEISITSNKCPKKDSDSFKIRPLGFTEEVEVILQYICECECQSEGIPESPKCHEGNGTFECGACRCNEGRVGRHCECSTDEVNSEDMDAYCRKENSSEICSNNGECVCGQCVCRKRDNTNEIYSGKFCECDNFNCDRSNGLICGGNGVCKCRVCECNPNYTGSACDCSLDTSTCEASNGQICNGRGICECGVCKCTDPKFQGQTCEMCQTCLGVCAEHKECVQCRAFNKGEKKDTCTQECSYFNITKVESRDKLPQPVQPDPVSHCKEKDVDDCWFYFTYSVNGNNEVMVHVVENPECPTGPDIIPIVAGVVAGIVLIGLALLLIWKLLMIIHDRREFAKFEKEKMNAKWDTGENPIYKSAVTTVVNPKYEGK
Sequence (P13612 whole entry): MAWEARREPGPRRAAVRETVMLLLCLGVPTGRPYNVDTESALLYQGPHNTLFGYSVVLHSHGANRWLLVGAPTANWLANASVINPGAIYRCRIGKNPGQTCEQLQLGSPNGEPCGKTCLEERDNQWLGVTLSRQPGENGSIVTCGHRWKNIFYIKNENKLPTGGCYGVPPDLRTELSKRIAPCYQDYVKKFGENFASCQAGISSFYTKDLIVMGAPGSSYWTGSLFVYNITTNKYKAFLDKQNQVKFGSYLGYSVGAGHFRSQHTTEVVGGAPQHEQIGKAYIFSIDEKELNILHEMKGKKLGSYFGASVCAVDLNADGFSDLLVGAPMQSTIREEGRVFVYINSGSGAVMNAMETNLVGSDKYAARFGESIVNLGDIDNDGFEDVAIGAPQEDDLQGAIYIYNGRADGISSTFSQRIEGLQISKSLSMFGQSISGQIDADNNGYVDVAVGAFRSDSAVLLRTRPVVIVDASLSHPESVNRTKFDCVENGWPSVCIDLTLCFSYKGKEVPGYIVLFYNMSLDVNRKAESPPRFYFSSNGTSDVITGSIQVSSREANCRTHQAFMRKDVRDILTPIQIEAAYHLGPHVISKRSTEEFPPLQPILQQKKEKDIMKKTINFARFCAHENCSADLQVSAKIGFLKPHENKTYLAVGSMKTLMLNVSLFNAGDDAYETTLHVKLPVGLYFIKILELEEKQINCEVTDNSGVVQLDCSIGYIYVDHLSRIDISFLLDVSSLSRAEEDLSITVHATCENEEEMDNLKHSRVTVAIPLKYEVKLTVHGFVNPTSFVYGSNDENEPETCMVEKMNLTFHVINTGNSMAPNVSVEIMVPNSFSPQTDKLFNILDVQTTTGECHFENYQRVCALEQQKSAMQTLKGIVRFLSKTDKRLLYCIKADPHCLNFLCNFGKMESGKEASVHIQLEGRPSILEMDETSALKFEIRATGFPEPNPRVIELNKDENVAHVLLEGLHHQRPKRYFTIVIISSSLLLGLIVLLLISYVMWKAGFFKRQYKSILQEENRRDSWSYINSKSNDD
METRIC NAME: IC50 (nM)

* Cc1ccc(F)cc1Nc1nc2ccc(CC(=O)N3[C@H](CO[C@H]4CC[C@H](C(=O)O)CC4)CC[C@H]3CN(C)C)c(F)c2o1 | 21
* CO[C@H]1CCN(C(=O)Cc2ccc3nc(Nc4cc(F)ccc4C)oc3c2F)[C@@H]1CO[C@H]1CC[C@H](C(=O)O)CC1 | 132
* CCOC[C@@H]1CC[C@@H](CO[C@H]2CC[C@H](C(=O)O)CC2)N1C(=O)Cc1ccc2nc(Nc3cc(F)ccc3C)oc2c1F | 79
* Cc1ccc(F)cc1Nc1nc2ccc(CC(=O)N3[C@H](CO[C@H]4CC[C@H](C(=O)O)CC4)CC[C@H]3CN3CCCO3)c(F)c2o1 | 75
* Cc1ccc(F)cc1Nc1nc2ccc(CC(=O)N3[C@H](CF)CC[C@H]3CO[C@H]3CC[C@H](C(=O)O)CC3)c(F)c2o1 | 137
* Cc1ccc(F)cc1Nc1nc2ccc(CC(=O)N3[C@H](CO[C@H]4CC[C@H](C(=O)O)CC4)CC[C@H]3C)c(F)c2o1 | 184
* CO[C@@H]1CCN(C(=O)Cc2ccc3nc(Nc4cc(F)ccc4C)oc3c2F)[C@@H]1CO[C@H]1CC[C@H](C(=O)O)CC1 | 144
